Values compiled from patent US20240391889A1.

- ASSAY: in vitro
- Type: cell-based, mouse
- CONDITIONS: mouse, 3T3 mouse fibroblast cells
Numbered stars: 1 amine (or outer) side, 2 acyl side, 3 side chain; on linkers, the order of the positions; unused ones are H or OH. Square brackets hold non-standard residues; d marks the D form. Peptide text beside a SMILES is read from it. N(tridecyl)Gly = CCCCCCCCCCCCCNCC(=O)O; X1 = CC(c1ccccc1)N(CC(=O)[*:2])[*:1]; NFurfurylGly = O=C(O)CNCc1ccco1; Gly(N(CH2)3NH2) = NCCCNCC(=O)O; Nphe = O=C(O)CNCc1ccccc1; NPrGly = CCCNCC(=O)O; Nlys = NCCCCNCC(=O)O
PROPERTY MEASURED: CC50 at 72 h (µg/mL)
Answers are plain numbers, in µg/mL.

INPUT: Look up and report measured CC50 at 72 h for this entry: CCCCCCCCCCCCCNCC(=O)N(CCC)CC(=O)N(CC(=O)N(CCCCN)CC(=O)N(CC(=O)N(CC(=O)N(CCCN)CC(N)=O)Cc1ccccc1)Cc1ccco1)C(C)c1ccccc1 (stereo not shown) [RMG9-11] (H-[N(tridecyl)Gly][NPrGly][X1][Nlys][NFurfurylGly][Nphe][Gly(N(CH2)3NH2)]-NH2)
OUTPUT: 39

---

- ASSAY: in vitro
- Type: cell-based
- CONDITIONS: human, HepG2 hepatocellular carcinoma cells
Numbered stars: 1 amine (or outer) side, 2 acyl side, 3 side chain; on linkers, the order of the positions; unused ones are H or OH. Square brackets hold non-standard residues; d marks the D form. Peptide text beside a SMILES is read from it. * marks the point of attachment. N(1S-cyclohexylethyl)Gly = C[C@H](NCC(=O)O)C1CCCCC1; Gly(Nα-4-Cl-benzyl) = O=C(O)CNCc1ccc(Cl)cc1; NCyclohexylmethylGly = O=C(O)CNCC1CCCCC1; N(tridecyl)Gly = CCCCCCCCCCCCCNCC(=O)O; X1 = CC(c1ccccc1)N(CC(=O)[*:2])[*:1]; Myristoyl = CCCCCCCCCCCCCC(=O)*; NFurfurylGly = O=C(O)CNCc1ccco1; Gly(N(CH2)3NH2) = NCCCNCC(=O)O; Nphe = O=C(O)CNCc1ccccc1; NPrGly = CCCNCC(=O)O; Nlys = NCCCCNCC(=O)O; Sar = CNCC(=O)O
PROPERTY MEASURED: CC50 at 72 h (µg/mL)
Answers are plain numbers, in µg/mL.

Example entries begin here.
COMPOUND	TEST VALUE
CCCCCCCCCCCCCNCC(=O)N(CCC)CC(=O)N(CC(=O)N(CCCCN)CC(=O)N(CC(=O)N(CC(=O)N(CCCN)CC(N)=O)Cc1ccccc1)Cc1ccco1)Cc1ccccc1 [Compound 911-M3] (H-[N(tridecyl)Gly][NPrGly][Nphe][Nlys][NFurfurylGly][Nphe][Gly(N(CH2)3NH2)]-NH2)	87.5
CCCCCCCCCCCCCNCC(=O)N(CCC)CC(=O)N(CC(=O)N(CCCCN)CC(=O)N(CC(=O)N(CC(=O)N(CCCN)CC(N)=O)Cc1ccccc1)Cc1ccco1)C(C)c1ccccc1 (stereo not drawn) [RMG9-11] (H-[N(tridecyl)Gly][NPrGly][X1][Nlys][NFurfurylGly][Nphe][Gly(N(CH2)3NH2)]-NH2)	114
CCCCCCCCCCCCCNCC(=O)N(CCC)CC(=O)N(C)CC(=O)N(CCCCN)CC(=O)N(CC(=O)N(CC(=O)N(CCCN)CC(N)=O)Cc1ccccc1)Cc1ccco1 [SAR 3] (H-[N(tridecyl)Gly][NPrGly][Sar][Nlys][NFurfurylGly][Nphe][Gly(N(CH2)3NH2)]-NH2)	194
CCCCCCCCCCCCCNCC(=O)N(CCC)CC(=O)N(CC(=O)N(CCCCN)CC(=O)N(C)CC(=O)N(CC(=O)N(CCCN)CC(N)=O)Cc1ccccc1)C(C)c1ccccc1 (stereo not drawn) [SAR 5] (H-[N(tridecyl)Gly][NPrGly][X1][Nlys][Sar][Nphe][Gly(N(CH2)3NH2)]-NH2)	157
CCCCCCCCCCCCCNCC(=O)N(CCC)CC(=O)N(CC(=O)N(CCCCN)CC(=O)N(CC(=O)N(C)CC(=O)N(CCCN)CC(N)=O)Cc1ccco1)C(C)c1ccccc1 (stereo not drawn) [SAR 6] (H-[N(tridecyl)Gly][NPrGly][X1][Nlys][NFurfurylGly][Sar][Gly(N(CH2)3NH2)]-NH2)	156

I'm hoping you can list CC50 at 72 h for every compound here, please.
1. CCCCCCCCCCCCCNCC(=O)N(CCC)CC(=O)N(CC(=O)N(CCCCN)CC(=O)N(CC(=O)N(CC(=O)N(C)CC(N)=O)Cc1ccccc1)Cc1ccco1)C(C)c1ccccc1 (stereo not drawn) [SAR 7] (H-[N(tridecyl)Gly][NPrGly][X1][Nlys][NFurfurylGly][Nphe][Sar]-NH2)
2. CCCCCCCCCCCCCNCC(=O)N(CCC)CC(=O)N(CC(=O)N(CCCCN)CC(=O)N(CC(=O)N(CC(=O)N(CCCN)CC(N)=O)Cc1ccccc1)Cc1ccco1)CC1CCCCC1 [Compound 911-M10] (H-[N(tridecyl)Gly][NPrGly][NCyclohexylmethylGly][Nlys][NFurfurylGly][Nphe][Gly(N(CH2)3NH2)]-NH2; N-terminus assumed)
3. CCCCCCCCCCCCCNCC(=O)N(CCC)CC(=O)N(CC(=O)N(CCCCN)CC(=O)N(CC(=O)N(CC(=O)N(CCCN)CC(N)=O)Cc1ccccc1)Cc1ccco1)Cc1ccc(Cl)cc1 [Compound 911-M5] (H-[N(tridecyl)Gly][NPrGly][Gly(Nα-4-Cl-benzyl)][Nlys][NFurfurylGly][Nphe][Gly(N(CH2)3NH2)]-NH2)
4. CCCCCCCCCCCCCC(=O)NCC(=O)N(CCC)CC(=O)N(CC(=O)N(CCCCN)CC(=O)N(CC(=O)N(CC(=O)N(CCCN)CC(N)=O)[C@@H](C)C1CCCCC1)Cc1ccco1)C(C)c1ccccc1 (stereo partly drawn) [Compound 911-M17] (Myristoyl-G[NPrGly][X1][Nlys][NFurfurylGly][N(1S-cyclohexylethyl)Gly][Gly(N(CH2)3NH2)]-NH2)

OUTPUT:
[57.7, 97.8, 114, 81.6]

---

- System: C. albicans
- Assay type: cell-based, Candida albicans
- CONDITIONS: 24 h
Numbered stars: 1 amine (or outer) side, 2 acyl side, 3 side chain; on linkers, the order of the positions; unused ones are H or OH. Square brackets hold non-standard residues; d marks the D form. Peptide text beside a SMILES is read from it. * marks the point of attachment. N(3-imidazol-1-ylpropyl)Gly = O=C(O)CNCCCn1ccnc1; N(2-thienylmethyl)Gly = O=C(O)CNCc1cccs1; N(tridecyl)Gly = CCCCCCCCCCCCCNCC(=O)O; X1 = CC(c1ccccc1)N(CC(=O)[*:2])[*:1]; Myristoyl = CCCCCCCCCCCCCC(=O)*; NFurfurylGly = O=C(O)CNCc1ccco1; Gly(N(CH2)3NH2) = NCCCNCC(=O)O; Nphe = O=C(O)CNCc1ccccc1; NPrGly = CCCNCC(=O)O; Nlys = NCCCCNCC(=O)O; Sar = CNCC(=O)O
Please respond with reported MIC C. albicans for every item in the list.
Give bare numbers, in µg/mL.

COMPOUND	MIC C. albicans / µg/mL
CCCCCCCCCCCCCNCC(=O)N(CCC)CC(=O)N(CC(=O)N(CCCCN)CC(=O)N(CC(=O)N(CC(=O)N(CCCN)CC(N)=O)Cc1ccccc1)Cc1ccco1)Cc1cccs1 [Compound 911-M8] (H-[N(tridecyl)Gly][NPrGly][N(2-thienylmethyl)Gly][Nlys][NFurfurylGly][Nphe][Gly(N(CH2)3NH2)]-NH2)	6.25
CCCCCCCCCCCCCC(=O)NCC(=O)N(CCC)CC(=O)N(CC(=O)N(CCCCN)CC(=O)N(CC(=O)N(CCCn1ccnc1)CC(=O)N(CCCN)CC(N)=O)Cc1ccco1)C(C)c1ccccc1 (stereo not drawn) [Compound 911-M14] (Myristoyl-G[NPrGly][X1][Nlys][NFurfurylGly][N(3-imidazol-1-ylpropyl)Gly][Gly(N(CH2)3NH2)]-NH2)	25
CCCCCCCCCCCCCNCC(=O)N(CCC)CC(=O)N(CC(=O)N(CCCCN)CC(=O)N(CC(=O)N(CC(=O)N(CCCN)CC(N)=O)Cc1ccccc1)Cc1ccco1)Cc1ccccc1 [Compound 911-M3] (H-[N(tridecyl)Gly][NPrGly][Nphe][Nlys][NFurfurylGly][Nphe][Gly(N(CH2)3NH2)]-NH2)	6.25
CCCCCCCCCCCCCNCC(=O)N(CCC)CC(=O)N(CC(=O)N(CCCCN)CC(=O)N(CC(=O)N(CC(=O)N(CCCN)CC(N)=O)Cc1ccccc1)Cc1ccco1)Cc1ccco1 [Compound 911-M7] (H-[N(tridecyl)Gly][NPrGly][NFurfurylGly][Nlys][NFurfurylGly][Nphe][Gly(N(CH2)3NH2)]-NH2)	12.5

INPUT: Look up and report measured MIC C. albicans for this entry: CCCCCCCCCCCCCNCC(=O)N(CCC)CC(=O)N(C)CC(=O)N(CCCCN)CC(=O)N(CC(=O)N(CC(=O)N(CCCN)CC(N)=O)Cc1ccccc1)Cc1ccco1 [SAR 3] (H-[N(tridecyl)Gly][NPrGly][Sar][Nlys][NFurfurylGly][Nphe][Gly(N(CH2)3NH2)]-NH2)
OUTPUT: 50
